- System: Fibrinogen (Alexa647-labelled)
- test_name: fibrinogen binders on compound microarrays, profiling panel, artefact control for SMM control-protein annotation, biochemical, small-molecule microarray, 635/667 nm fluorescence (AID 1131);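 also: z-score merges 667 nm fluorescence with per-spot signal-to-noise over triplicate slides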
- experimental_conditions: fibrinogen-A647 binding fluorescence, higher = more signal
Task for the reader: assign each of the following compounds its reported composite z-score.
Answers are plain numbers.

[[record]]
compound = "CN1C(=O)[C@]2(CCS(=O)(=O)c3ccccc3)N=C(c3ccc(OCCCO)cc3)O[C@@H]2c2ccccc21"
experimental_result = 0.495


For every record below, what is its composite z-score?
1. COC(=O)c1ccc([C@H](NC(=O)c2ccccc2)[C@]2(C)C[C@H]2C2CCCCC2)cc1
2. COc1cc2c(cc1O)C(c1ccc(CN3CCCC3)cc1)N(Cc1cccc(OC(F)(F)F)c1)CC2 (configuration not stated)
3. COCCOC(=O)N1C(=O)[C@@]2(c3cc(C#Cc4ccc(OC)cc4)ccc31)[C@H](C(=O)Nc1nc3ccccc3s1)[C@H]1C(=O)O[C@H](c3ccccc3)[C@H](c3ccccc3)N1[C@@H]2c1ccccc1OCCO
4. COc1ccc(CCNC(=O)[C@@H]2c3ccccc3C(=O)N(CC34CC5CC(CC(C5)C3)C4)[C@H]2c2ccc(CO)cc2)cc1
5. CC(=O)c1ccc(C(O)C2C=CC3C(=O)N(C)C(=O)C3N2NC(=O)OC(C)(C)C)cc1 (configuration not stated)
6. C=C(/C(=C/C[C@@H](OC(C)=O)c1ccccc1OCCO)c1cc(C(=O)OC)ccc1OC)C(C)C

Response line:
1: 0.707; 2: 0.406; 3: 0.922; 4: 0.61; 5: 1.05; 6: -0.0872

###

- subject_of_test: Left-right determination factor 2 (Homo sapiens) (UniProt O00292)
- Sequence (O00292 whole entry, looked up): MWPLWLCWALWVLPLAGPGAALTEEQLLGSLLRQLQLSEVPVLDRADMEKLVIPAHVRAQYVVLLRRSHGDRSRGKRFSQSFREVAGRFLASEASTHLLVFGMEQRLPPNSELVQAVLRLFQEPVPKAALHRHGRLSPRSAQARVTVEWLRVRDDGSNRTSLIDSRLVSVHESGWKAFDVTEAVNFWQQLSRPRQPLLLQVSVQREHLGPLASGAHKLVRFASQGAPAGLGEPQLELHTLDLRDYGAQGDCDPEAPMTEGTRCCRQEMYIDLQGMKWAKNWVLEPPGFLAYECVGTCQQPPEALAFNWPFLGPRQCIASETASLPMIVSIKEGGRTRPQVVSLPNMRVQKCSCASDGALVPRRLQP
- test_name: LEFTY2 binders on small-molecule microarrays, primary screen, biochemical, small-molecule microarray, 635 nm fluorescence scan (AID 1110)
- experimental_conditions: LEFTY2 binding, higher = more signal
observed_property: composite z-score
Answers are plain numbers.

[[record]]
compound = "CC1(C)OC[C@@]23C=C(Br)[C@@H](C[C@H]12)[C@@]1(CO1)C3=O"
observed_property = "composite z-score"
experimental_result = 0.841

[[record]]
compound = "C=C(/C(=C/C[C@@H](OC(C)=O)c1ccccc1OCCO)c1cc(C(=O)OC)ccc1OC)C(C)C"
observed_property = "composite z-score"
experimental_result = -0.0061

[[record]]
compound = "O=c1cccc(-c2ccccc2C(F)(F)F)o1"
observed_property = "composite z-score"
experimental_result = -0.747

[[record]]
compound = "CC(C)C(=C=CC[C@@H](O)c1ccccc1OCCO)C[C@@H](O)c1cc(Cl)cc(Cl)c1O"
observed_property = "composite z-score"
experimental_result = 0.744

[[record]]
compound = "COC(=O)[C@@]1(Cc2ccccc2CN=[N+]=[N-])COC(c2ccc(OCCCO)cc2)=N1"
observed_property = "composite z-score"
experimental_result = -2.75


For every record below, what is its composite z-score?
1. CC(C)C(=C=CC[C@@H](O)c1ccc(OCCO)cc1)CCO
2. O=C1O[C@@H](c2ccccc2)[C@@H](c2ccccc2)N2[C@@H](c3ccc(OCCO)cc3)[C@]3(C(=O)Nc4ccc(C#CCCO)cc43)[C@@H](C(=O)Nc3nc4ccccc4s3)[C@H]12
3. C=CCC(OC(C)=O)[C@@H]1[C@@H](N(Cc2ccc(-c3cccc(C(F)(F)F)c3)o2)C(=O)Cc2ccc(OC)cc2)c2cc(OCCCO)ccc2N1C(=O)c1ccc2ccccc2n1 (stereo partly drawn)

Response line:
1: -0.141; 2: 0.364; 3: -0.323
